# MEASUREMENT PROTOCOL: in vitro
# CONDITION: human, CC50 (uM) [SG]
hey, just use label 1 if measured CC50 is less than 10 µM, otherwise label 0

Could you please tell me whether CC50 recorded for CN[C@H]1CC[C@@H](c2ccc(Cl)c(Cl)c2)c2ccc(NS(=O)(=O)c3ccccc3)cc21 is less than 10 µM?
label 1

Given the entry CSc1ccc(Oc2ccc(S(N)(=O)=O)cc2CN2CCNCC2)cc1C [Compound 111] , would its reported CC50 be below 10 µM?
label 0

Item CSc1ccc(Oc2ccc(S(N)(=O)=O)cc2CN2CC[C@@H](N(C)C)C2)cc1C [Compound 100] : CC50 beneath 10 µM, strictly?
label 0

Item CSc1ccc(Oc2ccc(S(N)(=O)=O)cc2CN2CCOCC2)cc1C [Compound 82] : CC50 beneath 10 µM, strictly?
label 0

Hello, is CC50 of the following compound strictly smaller than 10 µM? CSc1ccc(N2CN(C)Cc3cc(S(N)(=O)=O)ccc32)cc1C [Compound 107]
label 0

Just wondering, is CC50 of CN[C@H]1CC[C@@H](c2ccc(Cl)c(Cl)c2)c2ccc(CN)cc21 [Sertraline A-Ring Methanamine] below 10 µM?
label 1

I wonder whether CSc1ccc(Oc2ccc(S(N)(=O)=O)cc2CN2CCN(c3ccccc3F)CC2)cc1C [Compound 87] has CC50 below 10 µM. Can you tell?
label 0

* * *

# MEASUREMENT PROTOCOL: in vitro
# CONDITION: human, CC50
Consider the following molecules; for each one, report its CC50.

molecule CN[C@H]1CC[C@@H](c2ccc(Cl)c(Cl)c2)c2ccc(S(N)(=O)=O)cc21 [Sertraline Sulfonamide NH2] , CC50 observed: > 13.4 µM

CC50 measured on CN(C)[C@H]1CC[C@@H](c2ccc(Cl)c(Cl)c2)c2ccccc21 [N,N-Dimethyl Sertraline] = > 13.4 µM

Item: CN[C@H]1CC[C@@H](c2ccc(Cl)c(Cl)c2)c2ccc(C(=O)OC)cc21 [Sertraline A-ring Methyl Ester] | CC50: 8.01 µM

For reference, reported CC50 for CN[C@H]1CC[C@@H](c2ccc(Cl)c(Cl)c2)c2ccc(NS(C)(=O)=O)cc21 [Sertraline (Reverse) Methanesulfonamide] stands at 12.9 µM

Lab note: measured CC50 of CN[C@H]1CC[C@@H](c2ccc(Cl)c(Cl)c2)c2ccc(S(=O)(=O)N(C)C)cc21 [Sertraline N,N-dimethylsulfonamide] was 7.85 µM

Please fill in: CC50 reported for CN[C@H]1CC[C@@H](c2ccc(Cl)c(Cl)c2)c2ccc(CO)cc21 [Sertraline A-Ring Ethanol] = 11.1 µM

Given item CN[C@H]1CC[C@@H](c2ccc(Cl)c(Cl)c2)c2ccc(C#N)cc21 [Sertraline Nitrile] , the value recorded as its CC50 is > 13.4 µM

Just so you know, measured CC50 for CNC1CCC(c2ccc(C(F)(F)F)cc2)c2ccccc21 (centres unmarked) [Sertraline B-Ring para-Trifluoromethane] came out at 15.9 µM

Noted for CNC1CCC(c2ccc(Oc3ccccc3)cc2)c2ccccc21 (centres unmarked) [Sertraline B-ring para-Phenoxy] : its CC50 reads 7.46 µM

Lab note: measured CC50 of CN(C)[C@H]1CC[C@@H](c2ccc(Cl)c(Cl)c2)c2ccc(NS(C)(=O)=O)cc21 [Dimethyl Sertraline Reverse Sulfonamide] was > 13.4 µM

Measured CC50 of N[C@@H]1CC[C@H](c2ccc(Cl)c(Cl)c2)c2ccccc21 [(1R,4R)-Desmethyl Sertraline] : > 8.83 µM

Reported CC50 ( CN[C@H]1CC[C@@H](c2ccc(Cl)c(Cl)c2)c2ccc(CNS(C)(=O)=O)cc21 ) = 10.5 µM

// recorded CC50 for CN[C@H]1CC[C@@H](c2ccc(Cl)c(Cl)c2)c2ccc(S(=O)(=O)NC)cc21 [Sertraline Sulfonamide] : 11.6 µM

CC50 recorded for this molecule, NC1CCC(c2ccc(Cl)c(Cl)c2)c2ccccc21 (racemic) , is 7.84 µM
